Source listed as patent US10899732B2.

target: NaV1.5 (Homo sapiens, UniProt Q14524); construct: expression vector containing the full-length cDNA coding for the desired human sodium channel α-subunit; expressed in transfected cells; host or cells: HEK-293; experiment: Patch voltage clamp electrophysiology assay (EP), NaV1.5 in HEK-293 cells; assay type: cell-based; conditions: HEK-293, β1 coexpressed, held at -60 mV (inactivated state)
Sequence (Q14524 whole entry): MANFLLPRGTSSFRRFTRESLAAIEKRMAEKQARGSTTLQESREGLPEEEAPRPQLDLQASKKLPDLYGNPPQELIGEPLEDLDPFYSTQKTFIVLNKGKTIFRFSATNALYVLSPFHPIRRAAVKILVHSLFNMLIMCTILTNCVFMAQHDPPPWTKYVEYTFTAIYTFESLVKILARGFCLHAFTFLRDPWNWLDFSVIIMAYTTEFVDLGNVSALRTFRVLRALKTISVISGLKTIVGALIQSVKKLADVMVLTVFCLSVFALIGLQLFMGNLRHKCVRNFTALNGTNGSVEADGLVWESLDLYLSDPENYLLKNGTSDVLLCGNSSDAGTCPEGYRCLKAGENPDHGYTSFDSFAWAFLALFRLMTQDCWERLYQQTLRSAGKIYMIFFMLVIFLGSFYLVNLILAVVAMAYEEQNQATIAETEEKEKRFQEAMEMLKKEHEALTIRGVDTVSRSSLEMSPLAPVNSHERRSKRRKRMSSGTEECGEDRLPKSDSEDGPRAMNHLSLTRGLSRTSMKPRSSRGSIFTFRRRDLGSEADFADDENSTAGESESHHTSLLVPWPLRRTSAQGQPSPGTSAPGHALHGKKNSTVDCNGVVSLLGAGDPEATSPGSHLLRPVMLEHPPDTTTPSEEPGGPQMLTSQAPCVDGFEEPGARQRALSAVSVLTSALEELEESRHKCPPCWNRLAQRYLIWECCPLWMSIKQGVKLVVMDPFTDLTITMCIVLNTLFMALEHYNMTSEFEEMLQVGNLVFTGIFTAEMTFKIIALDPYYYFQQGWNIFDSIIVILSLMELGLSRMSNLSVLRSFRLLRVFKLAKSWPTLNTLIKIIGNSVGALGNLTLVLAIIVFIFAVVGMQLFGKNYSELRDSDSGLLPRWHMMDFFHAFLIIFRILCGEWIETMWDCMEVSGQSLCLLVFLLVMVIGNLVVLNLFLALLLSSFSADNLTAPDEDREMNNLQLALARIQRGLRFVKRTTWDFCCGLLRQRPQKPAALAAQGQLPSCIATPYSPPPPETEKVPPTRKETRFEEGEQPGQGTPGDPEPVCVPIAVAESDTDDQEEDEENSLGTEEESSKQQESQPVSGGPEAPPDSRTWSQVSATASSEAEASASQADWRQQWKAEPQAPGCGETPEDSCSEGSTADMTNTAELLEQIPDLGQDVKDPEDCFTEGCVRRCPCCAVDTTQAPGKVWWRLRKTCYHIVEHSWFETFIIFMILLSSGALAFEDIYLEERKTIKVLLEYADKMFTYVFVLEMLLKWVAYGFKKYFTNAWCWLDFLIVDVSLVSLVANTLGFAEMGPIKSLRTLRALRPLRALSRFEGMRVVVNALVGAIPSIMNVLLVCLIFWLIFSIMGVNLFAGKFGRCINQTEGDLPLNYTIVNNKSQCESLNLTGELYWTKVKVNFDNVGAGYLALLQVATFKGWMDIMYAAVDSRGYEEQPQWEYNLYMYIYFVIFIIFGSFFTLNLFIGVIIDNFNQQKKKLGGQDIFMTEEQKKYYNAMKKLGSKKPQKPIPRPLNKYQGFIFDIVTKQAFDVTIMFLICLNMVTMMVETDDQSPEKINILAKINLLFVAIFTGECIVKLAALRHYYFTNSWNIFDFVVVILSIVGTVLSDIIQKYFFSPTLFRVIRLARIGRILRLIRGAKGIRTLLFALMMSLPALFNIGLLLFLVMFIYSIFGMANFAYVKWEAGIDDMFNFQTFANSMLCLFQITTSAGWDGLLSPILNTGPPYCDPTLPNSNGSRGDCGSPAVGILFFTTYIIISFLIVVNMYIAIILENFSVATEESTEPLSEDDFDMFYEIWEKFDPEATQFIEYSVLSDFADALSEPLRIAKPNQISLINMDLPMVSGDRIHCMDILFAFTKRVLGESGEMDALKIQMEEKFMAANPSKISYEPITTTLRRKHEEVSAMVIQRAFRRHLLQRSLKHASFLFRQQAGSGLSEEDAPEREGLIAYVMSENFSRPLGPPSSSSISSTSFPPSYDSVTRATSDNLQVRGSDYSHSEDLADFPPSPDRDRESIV
Structures can show the parent of a compound that is named as a salt.
Just a reminder that ties go to class 0: only IC50 strictly below 10 µM counts as class 1.

>>> df
                                   compound                          tested_system  class_name
0  Cc1nn([C@@H]2CCN(Cc3ccc(Cl)cc3C(F)(F)F)C2)c2cc(F)c(C(=O)NS(=O)(=O)C3CC3)cc12 [Example 20, trifluoroacetic acid salt]  NaV1.5 (Homo sapiens, UniProt Q14524)     class 1
1  Cc1nn(C2CN(Cc3cc(Cl)cc(OC(F)(F)F)c3)C2)c2cc(F)c(C(=O)NS(=O)(=O)C3CC3)cc12 [Example 15]  NaV1.5 (Homo sapiens, UniProt Q14524)     class 1
2  Cc1nn(C2CCN([C@@H](C)c3cc(Cl)cc(Cl)c3)CC2)c2cc(F)c(C(=O)NS(=O)(=O)C3CC3)cc12 [Example 10]  NaV1.5 (Homo sapiens, UniProt Q14524)     class 0
3  Cc1nn(C2CN(C(c3ccccc3)c3ccccc3)C2)c2cc(F)c(C(=O)NS(C)(=O)=O)cc12 [Example 24]  NaV1.5 (Homo sapiens, UniProt Q14524)     class 1
4  Cc1nn(C2CCN(Cc3cc(Cl)cc(OC(F)(F)F)c3)CC2)c2cc(F)c(C(=O)NS(=O)(=O)C3CC3)cc12 [Example 5]  NaV1.5 (Homo sapiens, UniProt Q14524)     class 1
5  Cc1nn(C2CCN(Cc3cc(C(F)(F)F)cc(Cl)c3F)CC2)c2cc(F)c(C(=O)NS(C)(=O)=O)cc12 [Example 1, 2,2,2-trifluoroacetate]  NaV1.5 (Homo sapiens, UniProt Q14524)     class 0
6  Cc1nn([C@@H]2CCN([C@H](C)c3cc(Cl)cc(Cl)c3)C2)c2cc(F)c(C(=O)NS(C)(=O)=O)cc12 [Example 16, trifluoroacetic acid salt]  NaV1.5 (Homo sapiens, UniProt Q14524)     class 0
